# System: 786-0 renal
# protocol.description: NCI tumour cell line growth inhibition, 48 h
readout.kind: TGI

Observe how each entry below is paired with its result.
compound	assay.target	readout.kind	value
O=C(O)C(O)(c1ccc(-c2ccccc2)cc1)c1ccc(-c2ccccc2)cc1	786-0 renal	TGI	80.4 µM
CC(=O)N1c2ccccc2C2=NN(C)C(=N)SC21 (stereo unspecified)	786-0 renal	TGI	> 100 µM
Cc1c[nH]c(C(=O)O)c1-c1cccn1-c1ccc(Cl)cc1[N+](=O)[O-]	786-0 renal	TGI	> 100 µM
C=C1CCCC(C)(C)[C@H]1C/C=C1\CCOC1=O	786-0 renal	TGI	28.7 µM
CN(C)CCCNc1ccc2nnn3c4ccc(OC(=O)c5ccccc5)cc4c(=O)c1c23	786-0 renal	TGI	17.5 µM
N#Cc1cc2c(cc1C#N)/C(=N\c1cccc(N)n1)N=C2Nc1cccc(N)n1	786-0 renal	TGI	30.6 µM
O=c1[nH]c2cc([N+](=O)[O-])ccc2nc1/C(=N/Nc1ccccc1)C(O)c1ccco1 (stereo unspecified)	786-0 renal	TGI	> 100 µM
Cc1ccc(S(=O)(=O)OCC#CCOS(=O)(=O)c2ccc(C)cc2)cc1	786-0 renal	TGI	7.15 µM
O=[N+]([O-])c1ccc(-n2nc3ccc4c(no[n+]4[O-])c3[n+]2[O-])c([N+](=O)[O-])c1	786-0 renal	TGI	7.97 µM
Cc1cc(N(CCC#N)CCC#N)ccc1N=Nc1cc(Cl)ccc1Cl	786-0 renal	TGI	28.9 µM

Go through the list and state TGI for each entry.
1. Cc1cc(C(=O)Nc2n[nH]c3ccccc23)n[nH]1
2. CC(=O)c1c(SCCN2CCOCC2)n(-c2ccccc2)c(=S)n(-c2ccccc2)c1=O

["> 100 µM", "26.4 µM"]
